- assay text: Human plasma stability
- Type: in vitro ADME
- measurement parameters: both sexes, human, plasma; 3 μM, 37 °C, 240 min course; read-out: human plasma t1/2
Each record here notes measured half-life at 3 μM.

[
  {
    "compound": "CCCCCCCCCCCCCCCCSCCCOP(=O)(O)CO[C@H](C)Cn1cnc2c(N)ncnc21.N",
    "half-life at 3 μM": "> 4 h"
  },
  {
    "compound": "C[C@H](Cn1cnc2c(N)ncnc21)OCP(=O)(O)OCCCSCCCCCCCCCCCCc1ccc(F)cc1.N [16g]",
    "half-life at 3 μM": "> 4 h"
  },
  {
    "compound": "C[C@H](Cn1cnc2c(N)ncnc21)OCP(=O)(O)OCCCSCCCCCCCCCCCCC1CCCCC1.N [16h]",
    "half-life at 3 μM": "> 4 h"
  },
  {
    "compound": "CCN(CC)CCOC(=O)c1ccc(N)cc1 [Procaine, reference compound]",
    "half-life at 3 μM": "0.00667 h"
  }
]

----------
- assay text: Mouse tissue (liver, kidney, brain) pharmacokinetics after oral dose
- Format: in vivo, male C57BL/6 mice
- measurement parameters: male, C57BL/6, mouse, po; kidney, prodrug, p.o. 10 mg/kg; read-out: AUC0–24h
Each record here notes measured AUC(0-t) at 24 h.

[
  {
    "compound": "CCCCCCCCCCCCCCCCSCCCOP(=O)(O)CO[C@H](C)Cn1cnc2c(N)ncnc21.N [2a]",
    "AUC(0-t) at 24 h (ng·h/mL)": 5740
  },
  {
    "compound": "C[C@H](Cn1cnc2c(N)ncnc21)OCP(=O)(O)OCCCSCCCCCCCCCCCCC1CCCCC1.N [16h]",
    "AUC(0-t) at 24 h (ng·h/mL)": 10800
  },
  {
    "compound": "C[C@H](Cn1cnc2c(N)ncnc21)OCP(=O)(O)OCCCSCCCCCCCCCCCCc1ccc(F)cc1.N [16g]",
    "AUC(0-t) at 24 h (ng·h/mL)": 7650
  }
]

----------
Each record here notes measured Cmax at 24 h.
- assay text: Mouse tissue (liver, kidney, brain) pharmacokinetics after oral dose
- Assay type: in vivo, male C57BL/6 mice
- measurement parameters: male, C57BL/6, mouse, po; kidney, prodrug, p.o. 10 mg/kg

[
  {
    "compound": "C[C@H](Cn1cnc2c(N)ncnc21)OCP(=O)(O)OCCCSCCCCCCCCCCCCc1ccc(F)cc1.N [16g]",
    "Cmax at 24 h / ng/mL": 602
  },
  {
    "compound": "CCCCCCCCCCCCCCCCSCCCOP(=O)(O)CO[C@H](C)Cn1cnc2c(N)ncnc21.N",
    "Cmax at 24 h / ng/mL": 581
  },
  {
    "compound": "C[C@H](Cn1cnc2c(N)ncnc21)OCP(=O)(O)OCCCSCCCCCCCCCCCCC1CCCCC1.N [16h]",
    "Cmax at 24 h / ng/mL": 795
  }
]

----------
Each record here notes measured concentration at 4 h.
- assay text: Mouse tissue (liver, kidney, brain) pharmacokinetics after oral dose
- Type: in vivo, male C57BL/6 mice
- measurement parameters: male, C57BL/6, mouse, kidney, po; p.o. 10 mg/kg, 4 h; read-out: mean prodrug concentration in kidney
measure: concentration at 4 h (ng/mL)

[
  {
    "molecule": "C[C@H](Cn1cnc2c(N)ncnc21)OCP(=O)(O)OCCCSCCCCCCCCCCCCc1ccc(F)cc1.N [16g]",
    "observed value": 602
  },
  {
    "molecule": "CCCCCCCCCCCCCCCCSCCCOP(=O)(O)CO[C@H](C)Cn1cnc2c(N)ncnc21.N [2a]",
    "observed value": 385
  },
  {
    "molecule": "C[C@H](Cn1cnc2c(N)ncnc21)OCP(=O)(O)OCCCSCCCCCCCCCCCCC1CCCCC1.N [16h]",
    "observed value": 795
  }
]
